# run.description: Half life in human plasma
# Assay type: ADME, cell-free
Flag rule - half-life less than 2 h flags 1; the remaining entries get -1.

Some entries whose results are on file:
1. CCCCN(CCCC)Cc1cccc(C(=O)OCCOCn2cnc3c(=O)[nH]c(N)nc32)c1
1
2. O=C(CCCC[C@@H]1CCSS1)NCCc1ccc(O)c(O)c1
1
3. C[C@H](NC(=O)[C@H](N)CC(=O)OCc1ccccc1)C(=O)O
-1
4. CCCC(CCC)C(=O)OCN(C)C(=O)c1ccccc1
-1
5. CCCCC(=O)OCN1C(=O)NC(c2ccccc2)(c2ccccc2)C1=O
1
6. C[C@H](C(=O)OCC(=O)N(C)C)c1ccc(-c2ccccc2)c(F)c1
1
7. CC(C)C[C@H](NC(=O)[C@H](Cc1ccccc1)NC(=O)CNC(=O)CN1C(=O)[C@H](Cc2ccc(O)cc2)NC12CCCC2)C(=O)O
-1
8. CC(C)C[C@H]1NC(=O)[C@H](Cc2ccccc2)NC(=O)CNC(=O)[C@@H](C)NC(=O)[C@H](Cc2ccc(O)cc2)NC(=O)OCOC1=O
-1
9. CCOC(=O)[C@@H](N)Cc1ccc(O)c(O)c1
1
10. Cc1cc(C)nc(N(COC(=O)C(C)(C)C)S(=O)(=O)c2ccc(N)cc2)n1
-1

Challenge: Lab note: confirm whether the reported half-life for this molecule is below 2 h, equality not counting. molecule: `CC(C)(C)OC(=O)Oc1ccc2c3c1O[C@H]1C(=O)CC[C@@]4(O)[C@@H](C2)N(CC2CC2)CC[C@]314`
Response given: -1

Challenge: Lab note: confirm whether the reported half-life for this molecule is below 2 h, equality not counting. molecule: `CCOC(=O)CN(COC(=O)[C@@H]1N2C(=O)[C@@H](NC(=O)Cc3ccccc3)[C@H]2SC1(C)C)C(=O)c1ccccc1`
Response given: 1

Challenge: Take the molecule `CCOC(=O)CN(C)C(=O)OCOC(=O)[C@@H](C)c1ccc2cc(OC)ccc2c1` and say whether its half-life is less than 2 h.
Response given: 1
